Consider the following compounds; for each one, report its viability, T/C.
- System: 565726-208-R1-J5-PDC complex spheroids, growth inhibition;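 also: spheroids exposed to compounds for seven days before readout; 100% = DMSO vehicle control viability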
- Test: Anticancer human tumor 565726-208-R1-J5-PDC patient-derived pancreatic adenocarcinoma cell line growth inhibition [RAS]
- Run conditions: second compound 0.03 µM; first compound 1 µM; stronger effect = lower value
Numbers only, in %.

Consider the worked cases shown below.
[
  {
    "Compound": "O=C(c1ccc(F)c(F)c1Nc1ccc(I)cc1F)N1CC(O)([C@@H]2CCCCN2)C1 + CCn1c(-c2cccnc2C(C)OC)c2c3cc(ccc31)N1CCOC(CC(NC(=O)C(C(C)C)N(C)C(=O)C3(F)CCN(C(=O)C#CC(C)(C)N(C)C)CC3)C(=O)N3CCCC(N3)C(=O)OCC(C)(C)C2)C1",
    "Target or system": "565726-208-R1-J5-PDC complex spheroids, growth inhibition",
    "Recorded endpoint": "viability, T/C",
    "Val": 19.4
  },
  {
    "Compound": "C=CC(=O)Nc1cc(Nc2nccc(-c3cn(C)c4ccccc34)n2)c(OC)cc1N(C)CCN(C)C + CCn1c(-c2cc(N3CCN(C)CC3)cnc2C(C)OC)c2c3cc(ccc31)-c1csc(n1)CC(NC(=O)C1CC1C)C(=O)N1CCCC(N1)C(=O)OCC(C)(C)C2",
    "Target or system": "565726-208-R1-J5-PDC complex spheroids, growth inhibition",
    "Recorded endpoint": "viability, T/C",
    "Val": 15.5
  },
  {
    "Compound": "CCN1CCN(Cc2ccc(Nc3ncc(F)c(-c4cc(F)c5nc(C)n(C(C)C)c5c4)n3)nc2)CC1 + CCn1c(-c2cc(N3CCN(C)CC3)cnc2C(C)OC)c2c3cc(ccc31)-c1csc(n1)CC(NC(=O)C1CC1C)C(=O)N1CCCC(N1)C(=O)OCC(C)(C)C2",
    "Target or system": "565726-208-R1-J5-PDC complex spheroids, growth inhibition",
    "Recorded endpoint": "viability, T/C",
    "Val": 18.8
  }
]

Quick check: viability, T/C on 565726-208-R1-J5-PDC complex spheroids, growth inhibition, item CCN1CCN(Cc2ccc(Nc3ncc(F)c(-c4cc(F)c5nc(C)n(C(C)C)c5c4)n3)nc2)CC1 + CCn1c(-c2cccnc2C(C)OC)c2c3cc(ccc31)N1CCOC(CC(NC(=O)C(C(C)C)N(C)C(=O)C3(F)CCN(C(=O)C#CC(C)(C)N(C)C)CC3)C(=O)N3CCCC(N3)C(=O)OCC(C)(C)C2)C1 ?
57.4

Reference source for all entries: PubChem BioAssay AID2060899
